Tested on: CEM cells HIV-1 protection, formazan growth assay
Assay: NCI AIDS Antiviral Assay
MEASURED_QUANTITY: EC50

In the examples that follow, each entry is paired with its recorded EC50.
MOLECULE: Cc1ccc(C)n1-n1c(Cc2ccccc2)n[nH]c1=O
DATA_VALUE: > 200 µM
--
MOLECULE: Nc1cc(C(=O)O)ccc1O
DATA_VALUE: > 200 µM
--
MOLECULE: Clc1ccc(C2c3ccccc3-c3nc4ccccc4n32)cc1 (stereo unspecified)
DATA_VALUE: > 200 µM

Input: Could you tell me which EC50 is on file for N#CNC1=NC(Cc2ccccc2)C(=O)N1CCc1c[nH]c2ccccc12 (stereo unspecified) ?
Output: > 200 µM

Input: Any idea what EC50 was measured for O=C(CC(=O)c1ccc([N+](=O)[O-])cc1)C(=O)Nc1nccs1 ?
Output: > 186 µM

Input: // returns reported EC50 for input ClC1=C(Cc2ccccc2)Cc2ccc3c(c21)CCC3
Output: > 200 µM

Input: Reported EC50 for CCCOc1csc([C@H]2CCC3[C@@H]4CC=C5C[C@@H](OC(=O)CCC(=O)O)CC[C@]5(C)C4CC[C@@]32C)n1 (stereo partly specified) : what is it?
Output: > 47.9 µM

Input: Please look up its EC50: O=C(O)c1[nH]c(=O)[nH]c(=O)c1I
Output: > 200 µM

Input: Requested field: EC50. Item: C1=C[C@@H]2c3ccc4cnccc4c3NC[C@@H]2C1
Output: > 589 µM

Input: Would you kindly share the measured EC50 for Cc1cc(-c2ccccc2)nc(Nc2nc3ccccc3o2)n1 ?
Output: > 61.7 µM

Input: I'd like to know its EC50. The molecule in question is CC(=O)[C@@H]1[C@@H](OC(=O)CCC(C)COC2OC(CO)C(O)C(O)C2O)C[C@H]2[C@@H]3CC=C4C[C@@H](OC5OC(CO)C(OC6OC(C)C(O)C(O)C6O)C(O)C5OC5OC(C)C(O)C(O)C5O)CC[C@]4(C)[C@H]3CC[C@]12C (stereo partly specified)
Output: > 200 µM
